Read-out: Vascular cell adhesion molecule 1 (VCAM1), VCAM1 (gene 7412)
procedure_summary: BSK_hDFCGF_VCAM1: BioMAP Diversity Plus: hDFCGF Assay for Vascular cell adhesion molecule 1 (VCAM1) Biomarker Activity (AID 2283065)
test_context: primary human foreskin fibroblasts; actives raise or lower the signal
Calls of active or inactive are those of the source. Rule for the calls: active = hit-call score of the fitted dose curve at least 0.9, where 1 is the maximum; inactive = score below 0.9.
The categories you may choose from are yes (1) (active), no (0) (inactive)

These recorded examples may help you get a feel for the data.
[
  {
    "molecule": "CCOP(=S)(OCC)OC(Cl)C(Cl)(Cl)Cl (stereo unspecified)",
    "class_name": "yes (1)"
  },
  {
    "molecule": "CC[C@H](C)[C@H]1O[C@]2(C=C[C@@H]1C)C[C@@H]1C[C@@H](C/C=C(\\C)[C@@H](O[C@H]3C[C@H](OC)[C@@H](O[C@H]4C[C@H](OC)[C@@H](NC)[C@H](C)O4)[C@H](C)O3)[C@@H](C)/C=C/C=C3\\CO[C@@H]4[C@H](O)C(C)=C[C@@H](C(=O)O1)[C@]34O)O2",
    "class_name": "yes (1)"
  },
  {
    "molecule": "CCCCN(CC)c1c([N+](=O)[O-])cc(C(F)(F)F)cc1[N+](=O)[O-]",
    "class_name": "no (0)"
  },
  {
    "molecule": "CCOP(=S)(OCC)Oc1cc(C)nc(C(C)C)n1",
    "class_name": "no (0)"
  },
  {
    "molecule": "C[Si](Cn1cncn1)(c1ccc(F)cc1)c1ccc(F)cc1",
    "class_name": "no (0)"
  }
]

Let us examine a further case.
Hi team, can someone confirm the assay call for "CNC(=O)ON=C(C)SC" ?
no (0)

meta.source: PubChem BioAssay (EPA / NIEHS)
